Tested on: OVCAR-4 ovarian
Assay: NCI-60 one-dose screen, 48 h (100 = growth as untreated, 0 = no growth, -100 = all killed)
Settings: 10 µM unless noted
About 83,000 compounds went through this panel and 20% of them were active in at least one assay; those are over-represented in the sample as a whole. Active and inactive are the calls of the source. The calls were made as follows: active = growth percent below 10; inactive = the rest.
MEASURE_NAME: growth

Known results for molecules:
{"MOLECULE": "O=C1OC2C(I)C3CC2C1C3c1ccccc1 (stereo not given)", "growth": "96.3% (inactive)"}
{"MOLECULE": "Brc1cccc(-c2cc(-c3ccc4c(c3)OCCO4)[nH]n2)c1", "growth": "58.6% [25 µM] (inactive)"}

Record growth for all entries; do not skip any.
1. Clc1nc(Cl)c2c3c(sc2n1)CCCC3
2. O=C1Nc2ccccc2/C1=C/C(=N/c1nnc(-c2ccc(Cl)cc2)s1)c1ccccc1
3. O=C1c2cccnc2C(=O)c2c1c(C(=O)OCCN1CCOCC1)c1ccccn21
4. CN(CC(=O)N(Cc1ccc(C2CCCCC2)cc1)c1ccc(C(=O)NO)cc1)S(=O)(=O)c1c(F)c(F)c(F)c(F)c1F

1. 44.1% (inactive)
2. 57.3% (inactive)
3. 24.2% (inactive)
4. 84.4% (inactive)

Record growth for all entries; do not skip any.
1. O=C(Nc1cccc2c1C(=O)c1cccc(Nc3cccc4c3C(=O)c3cccc(NC(=O)c5ccccc5)c3C4=O)c1C2=O)c1ccccc1
2. COc1cc(C#N)cc(OC)c1OCCN(CCOc1c(OC)cc(C#N)cc1OC)S(=O)(=O)c1ccc(C)cc1
3. Cn1cc(-c2csc(-c3cn(C)c4ncccc34)n2)c2ccccc21
4. O=C(O)c1cccnc1Br

["118% (inactive)", "107% (inactive)", "71.6% (inactive)", "102% (inactive)"]

* * *

Test system: CAKI-1 renal
Assay: NCI-60 one-dose screen, 48 h
Settings: 10 µM unless noted
About 83,000 compounds went through this panel and 20% of them were active in at least one assay; those are over-represented in the sample as a whole. Activity calls are given as the source filed them. Rule for the calls: active = growth percent below 10; inactive = the rest.
Respond only with the outcome that fits, drawn from 1 (yes) for active, 0 (no) for inactive

{"MOLECULE": "OCCNCCNc1c2ccccc2nc2ccccc12", "MEASURED_TARGET": "CAKI-1 renal", "GROUP_LABEL": "0 (no)"}

Give the logged outcome of this assay for the following molecule: COc1ccc2nc3cc(Cl)ccc3c(N3CCN(c4ccnc(N5CCOCC5)n4)CC3)c2c1
0 (no)

Give the logged outcome of this assay for the following molecule: Nc1c(C(=O)Nc2cccc3c2OCCO3)sc2nc3c(cc12)CN(Cc1ccccc1)CC3
0 (no)

Give the logged outcome of this assay for the following molecule: COc1ccc2nc3cc(Cl)ccc3c(N3CCN(c4nccc(Nc5ccccc5)n4)CC3)c2c1
0 (no)

Give the logged outcome of this assay for the following molecule: O=[N+]([O-])c1cccc(C2CC(c3ccccc3)=Nc3ccccc3S2)c1 (stereo unspecified)
0 (no)

Give the logged outcome of this assay for the following molecule: O=C1O[C@H]([C@H](O)CO)C(O)=C1O
0 (no)

* * *

Tested on: HCC-2998 colon
Assay: NCI-60 one-dose screen, 48 h (100 = growth as untreated, 0 = no growth, -100 = all killed)
Details: 10 µM unless noted
About 83,000 compounds went through this panel and 20% of them were active in at least one assay; those are over-represented in the sample as a whole.
Please go through the items and note down their growth.
Numbers only, in %.

{"SMI": "Cc1cc(Cl)ccc1Nc1nc(C(F)(F)F)ccc1C(=O)N/N=C/c1ccc(F)cc1", "MEASURED_TARGET": "HCC-2998 colon", "growth [%]": 12.4}
{"SMI": "Nc1cc2nc3ccccc3sc-2cc1=O", "MEASURED_TARGET": "HCC-2998 colon", "growth [%]": 100}
{"SMI": "c1ccc2sc(SCCCn3ccnc3)nc2c1", "MEASURED_TARGET": "HCC-2998 colon", "growth [%]": 94.1}
{"SMI": "COc1cccc(-c2cn3c(ccc4ccccc43)n2)c1", "MEASURED_TARGET": "HCC-2998 colon", "growth [%]": 68.8}
{"SMI": "CC/C=C\\C[C@H](O)C/C=C1/C(=O)C=C[C@@H]1C/C=C\\CCCC(N)=O", "MEASURED_TARGET": "HCC-2998 colon", "growth [%]": -73.6}

Fill in: growth of COc1ccccc1/C=C(/C(=O)c1ccccc1)c1ccccc1 is ___
107
